# credit: PubChem BioAssay

- method.description: inhibition of 3D7 malaria parasite growth – strain 3D7 (AID 2306);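 also: 0% = DMSO wells and 100% = chloroquine plus artemisinin control wells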
- condition.info: P. falciparum 3D7 erythrocytic growth, LDH absorbance, 72 h; at 2 µM; hits give high values
measurement.label: growth inhibition (%)

>  <compound>
CC(C)C(=O)ONC1=NC(C)(C)N(OCCCOc2cc(Cl)c(Cl)cc2Cl)C(N)=N1

>  <meas.value>
95

$$$$
>  <compound>
COc1cc(Nc2ccnc3ccc(C(F)(F)F)cc23)ccc1OCCCc1ccccc1

>  <meas.value>
99

$$$$
>  <compound>
Cc1cc(C)cc(OCC(O)CN(CCN2CCOCC2)C(=O)Nc2ccc(Br)cc2)c1 (centres undefined)

>  <meas.value>
85

$$$$
>  <compound>
N#Cc1ccc2[nH]cc(CN3CCC4(CC3)CN(CCNCc3ccccc3)C(=O)O4)c2c1

>  <meas.value>
100

$$$$
>  <compound>
CC1CN(Cc2cccc(-c3ccc(-c4nc5ccccc5[nH]4)cc3)c2)CC(C)O1 (centres undefined)

>  <meas.value>
90

$$$$
>  <compound>
CCC(C)(C)c1ccc(OCCCC(=O)Nc2ccc(Cl)c([N+](=O)[O-])c2)c(C(C)(C)CC)c1

>  <meas.value>
92

$$$$
>  <compound>
COc1ccc(C(F)(F)F)cc1N1CCN(CCCCNC(=O)c2ccc(NC(=O)c3ccc(Cl)cc3)cc2)CC1

>  <meas.value>
94

$$$$
>  <compound>
Cc1ccc(-c2nnc3c4ccccc4c(C)nn23)cc1S(=O)(=O)N1CCN(CCO)CC1

>  <meas.value>
85

$$$$
>  <compound>
COc1ccc(NC(=O)[C@H](Cc2ccccc2)Nc2cc(C)nc(Nc3ccccc3)n2)cc1

>  <meas.value>
101

$$$$
>  <compound>
O=C(/C=C/c1ccc(Cl)c(Cl)c1)NCCCCCN1CCC(CCNC(=O)/C=C/c2ccccc2F)CC1

>  <meas.value>
94

$$$$
>  <compound>
Cc1ccc(C(=O)Nc2ccc(Cl)c(N3CCN(CCc4ccccc4)CC3)c2)cc1

>  <meas.value>
90

$$$$
>  <compound>
O=C(COc1cccc([N+](=O)[O-])c1)Nc1ccc(-c2nc3ccccc3[nH]2)cc1

>  <meas.value>
99

$$$$
>  <compound>
COc1cccc(C(=O)Nc2ccc(S(=O)(=O)c3cc4c(cc3OC)CCN(C)CC4)cc2)c1

>  <meas.value>
86

$$$$
>  <compound>
O=C(Nc1cccc(-c2ccc(-c3nc4ccc(C(F)(F)F)cc4[nH]3)cc2)c1)c1cnc[nH]1

>  <meas.value>
91

$$$$
>  <compound>
Cn1nccc1C(=O)NCCNCc1cccc(-c2csc(-c3nc4ccccc4[nH]3)c2)c1

>  <meas.value>
101

$$$$
>  <compound>
O=C(Nc1ccnc(N2CCCN(Cc3cccc(O)c3)CC2)c1)c1ccc(F)cc1

>  <meas.value>
90

$$$$
>  <compound>
Cc1cccc2[nH]c(-c3cccc(-c4cccc(NC(=O)N[C@@H]5C[C@H]5c5ccccc5)c4)c3)nc12

>  <meas.value>
98

$$$$
>  <compound>
COc1ccc2nccc([C@@H](O)CN3CCC(NC(=O)c4cc5c(F)cc(F)cc5[nH]4)CC3)c2c1

>  <meas.value>
101

$$$$
>  <compound>
Cc1cc(NN=Cc2ccccc2Cl)c2ccc(F)cc2n1

>  <meas.value>
101

$$$$
